Recorded pIC50 values (human potassium channel hERG (Homo sapiens)) are given below.
pIC50 is a log-scale quantity: -log10 of the concentration expressed in molar.

chemical_structure=Cc1cnc(NC(=O)Nc2cc(Cl)ccc2OCCCN(C)C)cn1 measured_target="human potassium channel hERG (Homo sapiens)" measured_number=5.53
chemical_structure=CN(C)CCCOc1ccc(Cl)cc1NC(=O)Nc1ccc(C#N)cn1 measured_target="human potassium channel hERG (Homo sapiens)" measured_number=6.35

Entry CN(C)CCCOc1ccc(Cl)cc1NC(=O)Nc1cnc(C#N)cn1 , tested on human potassium channel hERG (Homo sapiens), has a reported pIC50 of 5.29

Entry CN(C)CCCOc1ccc(Cl)cc1NC(=O)Nc1cnccn1 , tested on human potassium channel hERG (Homo sapiens), has a reported pIC50 of 5.30

Entry C[N+](C)([O-])CCCOc1ccc(Cl)cc1NC(=O)Nc1ccc(C#N)cn1 , tested on human potassium channel hERG (Homo sapiens), has a reported pIC50 of 5.12
